tested on: neuronal nitric oxide synthetase (Rattus norvegicus)
Construct: Enzyme was isolated from rat hippocampus or cerebellum
Sequence (P29476 whole entry): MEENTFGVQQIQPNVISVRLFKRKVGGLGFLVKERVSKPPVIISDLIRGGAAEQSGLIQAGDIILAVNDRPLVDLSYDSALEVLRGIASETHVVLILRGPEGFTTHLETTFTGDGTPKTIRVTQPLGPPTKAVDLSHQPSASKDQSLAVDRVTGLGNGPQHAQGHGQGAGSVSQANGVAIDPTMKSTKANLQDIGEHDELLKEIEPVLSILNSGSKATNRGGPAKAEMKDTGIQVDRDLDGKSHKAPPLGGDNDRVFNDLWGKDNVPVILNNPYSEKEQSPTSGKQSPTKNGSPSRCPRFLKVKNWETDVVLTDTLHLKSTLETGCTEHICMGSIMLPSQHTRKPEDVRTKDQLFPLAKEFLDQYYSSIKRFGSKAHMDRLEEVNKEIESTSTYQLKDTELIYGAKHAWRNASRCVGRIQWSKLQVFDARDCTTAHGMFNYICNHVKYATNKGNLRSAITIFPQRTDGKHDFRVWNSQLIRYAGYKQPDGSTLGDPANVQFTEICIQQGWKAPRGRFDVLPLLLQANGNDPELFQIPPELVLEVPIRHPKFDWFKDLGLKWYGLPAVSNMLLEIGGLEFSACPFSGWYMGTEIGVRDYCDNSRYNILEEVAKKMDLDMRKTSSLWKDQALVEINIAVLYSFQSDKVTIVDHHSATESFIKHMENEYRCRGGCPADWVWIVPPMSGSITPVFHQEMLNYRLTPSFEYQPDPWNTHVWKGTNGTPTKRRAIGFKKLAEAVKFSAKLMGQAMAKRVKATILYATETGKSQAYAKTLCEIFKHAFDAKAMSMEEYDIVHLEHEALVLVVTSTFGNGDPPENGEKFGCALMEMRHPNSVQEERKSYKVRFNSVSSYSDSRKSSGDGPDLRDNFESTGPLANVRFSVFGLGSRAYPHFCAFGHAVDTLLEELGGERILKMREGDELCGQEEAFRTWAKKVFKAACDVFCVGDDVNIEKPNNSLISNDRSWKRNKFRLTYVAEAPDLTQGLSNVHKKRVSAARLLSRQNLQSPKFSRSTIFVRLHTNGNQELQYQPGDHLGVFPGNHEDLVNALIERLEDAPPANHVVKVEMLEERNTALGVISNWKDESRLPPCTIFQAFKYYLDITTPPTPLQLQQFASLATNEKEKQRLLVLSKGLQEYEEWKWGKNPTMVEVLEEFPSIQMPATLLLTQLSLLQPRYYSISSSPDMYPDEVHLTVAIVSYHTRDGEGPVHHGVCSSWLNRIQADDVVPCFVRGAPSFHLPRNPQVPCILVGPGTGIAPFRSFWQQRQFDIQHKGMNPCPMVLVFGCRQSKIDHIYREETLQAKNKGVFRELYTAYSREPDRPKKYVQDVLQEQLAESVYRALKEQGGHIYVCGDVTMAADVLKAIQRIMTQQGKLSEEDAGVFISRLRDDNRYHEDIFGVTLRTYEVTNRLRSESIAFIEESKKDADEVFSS
procedure details: Screen A: neuronal nitric oxide synthetase inhibiting activity
details: enzyme from rat hippocampus or cerebellum; 22° C., pH 7.4, 10 minutes; read-out: IC50 in Screen A (neuronal isoform)
quantity: IC50

Consider the molecule N=C(Nc1ccc2c(c1)CC(NCc1ccccc1)C2)c1cccs1 (stereo not shown) and give its recorded IC50. < 10 µM
